Tested on: A498 renal
Assay: NCI-60 one-dose screen, 48 h (100 = growth as untreated, 0 = no growth, -100 = all killed)
Conditions: 10 µM
This is part of a sample that, as a whole, favours compounds with a hit. Of some 83,000 tested, about 20% had one in any assay.
READOUT_KIND: growth (%)
Field: numeric (%). Do not append units.

// output growth; input "CC[N+](CC)=c1ccc2nc3c(cc(N)c4ccccc43)oc-2c1" ; system A498 renal
-76.4

// output growth; input "CC1=CC(C)=Nc2ccc(Cl)cc2N1" ; system A498 renal
106

// output growth; input "CN(C)C(=S)SC(=S)N(C)C" ; system A498 renal
94.7

// output growth; input "CC(=O)Nc1cc(C)ccc1C" ; system A498 renal
83.8

// output growth; input "COc1c(O)cc2oc3cc(O)c(CC=C(C)C)c(O)c3c(=O)c2c1CC=C(C)C" ; system A498 renal
97.2

// output growth; input "CN1CCN(CCCN2c3ccccc3Sc3ccc(C(F)(F)F)cc32)CC1" ; system A498 renal
70.2

// output growth; input COC1OCC(O)C(O)C1O (stereo unspecified) ; system A498 renal
84.5

// output growth; input "O=C(O)COc1ccc(OCC(=O)O)cc1" ; system A498 renal
-14.2

// output growth; input CC(=O)OCC(OC(C)=O)C(OC(C)=O)C(OC(C)=O)C(OC(C)=O)C(/C=N/Nc1ccccc1)=N/Nc1ccccc1 (stereo unspecified) ; system A498 renal
83.4

// output growth; input COC(=O)C1C(O)C(C)C(O)C(C)C=C(C)C2=C3C(=C(C)C(=O)c4c(O)c(c(C)c(OC(C)=O)c43)NC(=O)C(C)=C/C=C\C(C)C(O)C(C)C1O)OCO2 (stereo unspecified) ; system A498 renal
123

// output growth; input "NC(=O)SCC(=O)NNc1ccccc1" ; system A498 renal
93.7

----------
System: SF-295 CNS
Assay: NCI-60 one-dose screen, 48 h (100 = growth as untreated, 0 = no growth, -100 = all killed)
Conditions: 10 µM
About 83,000 compounds went through this panel and 20% of them were active in at least one assay; those are over-represented in the sample as a whole.
READOUT_KIND: growth (%)
Field: numeric (%). Do not append units.

Determine from records and report growth for CCCCCC(C)c1ccc(O)c(C)c1 (stereo unspecified)
95.5

Determine from records and report growth for "Cc1cc(O)c(C(C)C)cc1Cl"
100

Determine from records and report growth for COc1cccc2c1C(=O)c1c(O)c3c(c(O)c1C2=O)C[C@@](O)(C(=O)CO)C[C@@H]3OC1CC(N)C(O)C(C)O1 (stereo partly specified)
-27.6

Determine from records and report growth for OC(CN1CCCC2CCCCC21)c1cc2ccccc2c2ccccc12 (stereo unspecified)
-3.44

Determine from records and report growth for "O=C1C=CC(=CC=C2C=CN(CCCCCCCCCCCO)C=C2)C=C1"
45.3

Determine from records and report growth for "NC1=C(Cl)C(=O)c2ccccc2C1=O"
41

----------
System: SK-MEL-2 melanoma
Assay: NCI-60 one-dose screen, 48 h (100 = growth as untreated, 0 = no growth, -100 = all killed)
Details: 10 µM
About 83,000 compounds went through this panel and 20% of them were active in at least one assay; those are over-represented in the sample as a whole.
I would appreciate it if you labelled entries rule met when growth is 50% or higher, otherwise rule not met.

Does the compound "O=C(/C=C/c1ccccn1)c1ccccc1" have recorded growth that is 50% or more?
rule met

Does the compound CSC1SCC2C(=O)N(C)C(C(C)C)C(=O)OCC(NC(=O)c3cnc4ccccc4n3)C(=O)NC(C)C(=O)N(C)C1C(=O)N(C)C(C(C)C)C(=O)OCC(NC(=O)c1cnc3ccccc3n1)C(=O)NC(C)C(=O)N2C (stereo not given) have recorded growth that is 50% or more?
rule not met

Does the compound "Oc1ccc(N=Nc2ccccn2)c(O)c1" have recorded growth that is 50% or more?
rule not met

Does the compound "O=C1NC(=O)c2cc([N+](=O)[O-])ccc21" have recorded growth that is 50% or more?
rule met

Does the compound COc1cccc2c1C(=O)c1c(O)c3c(c(O)c1C2=O)C[C@@](O)(C(C)=O)C[C@@H]3OC1CC(N)C(O)C(C)O1 (stereo not given in full) have recorded growth that is 50% or more?
rule not met

Does the compound "COc1c(O)cc2oc3cc(O)c(CC=C(C)C)c(O)c3c(=O)c2c1CC=C(C)C" have recorded growth that is 50% or more?
rule met

Does the compound "NC1=C(Cl)C(=O)c2ccccc2C1=O" have recorded growth that is 50% or more?
rule met

Does the compound "Clc1ccc(/C=C/c2ccccn2)c(Cl)c1" have recorded growth that is 50% or more?
rule met

Does the compound "O=C(O)COc1ccc(OCC(=O)O)cc1" have recorded growth that is 50% or more?
rule met

Does the compound CC(=O)OCC(OC(C)=O)C(OC(C)=O)C(OC(C)=O)C(OC(C)=O)C(/C=N/Nc1ccccc1)=N/Nc1ccccc1 (stereo not given) have recorded growth that is 50% or more?
rule met

----------
Test system: M14 melanoma
Assay: NCI-60 one-dose screen, 48 h (100 = growth as untreated, 0 = no growth, -100 = all killed)
Conditions: 10 µM
Compounds without any hit were thinned out: in the full panel of roughly 83,000, 20% have a hit.
I would appreciate it if you labelled entries Condition met when growth is 90% or higher, otherwise Condition not met.

Does the compound "Oc1ccc(N=Nc2ccccn2)c(O)c1" have recorded growth that is 90% or more?
Condition not met

Does the compound CC(=O)OCC(OC(C)=O)C(OC(C)=O)C(OC(C)=O)C(OC(C)=O)C(/C=N/Nc1ccccc1)=N/Nc1ccccc1 (stereo not drawn) have recorded growth that is 90% or more?
Condition not met

Does the compound "O=C(/C=C/c1ccccn1)c1ccccc1" have recorded growth that is 90% or more?
Condition not met

Does the compound "NC1=C(Cl)C(=O)c2ccccc2C1=O" have recorded growth that is 90% or more?
Condition not met

Does the compound "CC(=O)Nc1cc(C)ccc1C" have recorded growth that is 90% or more?
Condition met

Does the compound "CC1=CC(C)=Nc2ccc(Cl)cc2N1" have recorded growth that is 90% or more?
Condition met

----------
Tested on: DU-145 prostate
Assay: NCI-60 one-dose screen, 48 h (100 = growth as untreated, 0 = no growth, -100 = all killed)
Details: 10 µM unless noted
About 83,000 compounds went through this panel and 20% of them were active in at least one assay; those are over-represented in the sample as a whole. Calls of active or inactive are those of the source. The calls were made as follows: active = growth percent below 10; inactive = the rest.
READOUT_KIND: growth

// output growth; input CSC1SCC2C(=O)N(C)C(C(C)C)C(=O)OCC(NC(=O)c3cnc4ccccc4n3)C(=O)NC(C)C(=O)N(C)C1C(=O)N(C)C(C(C)C)C(=O)OCC(NC(=O)c1cnc3ccccc3n1)C(=O)NC(C)C(=O)N2C (centres undefined) ; system DU-145 prostate
-19.5% (active)

// output growth; input CCCCCC(C)c1ccc(O)c(C)c1 (centres undefined) ; system DU-145 prostate
103% (inactive)

// output growth; input "CCO/C=C1\SC(=S)N(c2cccc(O)c2)C1=O" ; system DU-145 prostate
109% (inactive)

// output growth; input CC(=O)OCC(OC(C)=O)C(OC(C)=O)C(OC(C)=O)C(OC(C)=O)C(/C=N/Nc1ccccc1)=N/Nc1ccccc1 (centres undefined) ; system DU-145 prostate
78.4% (inactive)

// output growth; input "CCCCCCCCCCCC[N+](C)(C)Cc1ccccc1" ; system DU-145 prostate
24.8% (inactive)

// output growth; input "O=[N+]([O-])C1=C(c2ccccc2)SC=C(c2ccccc2)S1" ; system DU-145 prostate
75.2% (inactive)

// output growth; input CO[C@H](C(=O)[C@@H](O)[C@@H](C)O)[C@@H]1Cc2cc3cc(OC4CC(OC5CC(O)C(O)C(C)O5)C(O)C(C)O4)c(C)c(O)c3c(O)c2C(=O)[C@H]1OC1CC(OC2CC(OC3CC(C)(O)C(O)C(C)O3)C(O)C(C)O2)C(O)C(C)O1 (some centres undefined) ; system DU-145 prostate
24.7% (inactive)

// output growth; input "N=S(c1ccccc1[N+](=O)[O-])c1ccccc1[N+](=O)[O-]" ; system DU-145 prostate
80.4% (inactive)

// output growth; input "O=C(/C=C/c1ccccn1)c1ccccc1" ; system DU-145 prostate
60.5% (inactive)

----------
Field: growth. Provide a value for each of the compounds that follow.
System: CAKI-1 renal
Assay: NCI-60 one-dose screen, 48 h (100 = growth as untreated, 0 = no growth, -100 = all killed)
Conditions: 10 µM
Compounds without any hit were thinned out: in the full panel of roughly 83,000, 20% have a hit. Active and inactive are the calls of the source. The calls were made as follows: active = growth percent below 10; inactive = the rest.

Determine from records and report growth for COC(=O)C1C(O)C(C)C(O)C(C)C=C(C)C2=C3C(=C(C)C(=O)c4c(O)c(c(C)c(OC(C)=O)c43)NC(=O)C(C)=C/C=C\C(C)C(O)C(C)C1O)OCO2 (stereo not given)
133% (inactive)

Determine from records and report growth for "O=C(O)COc1ccc(OCC(=O)O)cc1"
90.7% (inactive)

Determine from records and report growth for O=c1ccn(C2CC(O)C(COC(c3ccccc3)(c3ccccc3)c3ccccc3)O2)c(=O)[nH]1 (stereo not given)
127% (inactive)

Determine from records and report growth for "NC(=O)SCC(=O)NNc1ccccc1"
92.8% (inactive)

Determine from records and report growth for COC1OCC(O)C(O)C1O (stereo not given)
89.7% (inactive)
